B1: Activity-dependent neuroprotector homeobox protein, residues 770 to 810; numbered along this chain, Q9H2P0 (parent)
chain: FLTKYFNKQPYPTRREIEKLAASLWLWKSDIASHFSNKRKK

Variants of: B1
Experiment: abundance fitness (aPCA) (normalised: wild type 0, dead -1); higher = more abundant; growth selection in yeast, the domain comes from the species named
Conditions: Homo sapiens
Readout: abundance fitness
Answer as a number with no unit attached.

Observe how each entry below is paired with its result.
Change	Readout	Readout Number
R15M	abundance fitness	-0.204
K38L	abundance fitness	-0.197

Note: attention shifts to another entry.
Lookup: Can you look up the measured abundance fitness of W27L for me?
Found: -0.04
